FYI, the data here is from patent US7144706B2.

molecular target: IP3R; assay: [3H]IP3 binding assay and Scatchard analysis, cardiac muscle microsomes; set-up: species or system mouse; conditions: (+/+) cardiac muscle, n=5
attribute.measured: Kd (µM)
# unit: µM | format: bare number

Challenge: Param readout = Kd; param system = IP3R; param query = O=P(O)(O)O[C@@H]1[C@H](O)[C@H](O)[C@@H](OP(=O)(O)O)[C@H](OP(=O)(O)O)[C@H]1O [IP3, inositol 1,4,5-triphosphate] ; response: value
Response given: 0.024

###

biological target: IP3R; test: [3H]IP3 binding assay and Scatchard analysis, cardiac muscle microsomes; design: species or system mouse; settings: AnkB (+/−) cardiac muscle, n=5
attribute.measured: Kd (nM)
# unit: nM | format: bare number

Challenge: What value of Kd has been recorded for this entry: O=P(O)(O)O[C@@H]1[C@H](O)[C@H](O)[C@@H](OP(=O)(O)O)[C@H](OP(=O)(O)O)[C@H]1O [IP3, inositol 1,4,5-triphosphate]
Response given: 25
